Overview of reported binding percentage across a group of binders:
# measurement-target: human Claudin18.2 expressed on cells (human) (UniProt P56856)
# test-summary: flow cytometry on 293FT-hClaudin18.2 cells, antibody 10 ug/mL, cells with antibody binding/total cells
State the answer as a number, implicitly in %.

1-hIgG1Fc (Fc fusion, not shown: a dimerising Fc or GST) EVQLVGSGGGLVQPGGSLRLSCAASGSILNLMTTGWYRQAPGKQRDLVATITFGGTTNYADSVKGRFTISRDKSKNTAYLQMDNLKPEDTAVYFCYADVIVGFQDRRVAWDAGTQVTVSS
88.9
8-hIgG1Fc (Fc fusion, not shown: a dimerising Fc or GST) QVQLVESGGGLVQPGGSLRLSCAASGSIFGLNFMGWWRQAPGSQRELVAIATSGGSIQYGDSVKGRFTISRDNAKNTVYLQMASLKPEDTAVYYCNVHTYDFLGRDYWGQGTQVTVSL
93.9
10-hIgG1Fc (Fc fusion, not shown: a dimerising Fc or GST) QVQLAESGGGLVQPGGSLRLSCAASGNILSINYMGWYRQAPGKERELVATITRGGTTNYQGDLKGRFIISGDNTKDTVYLQMNNLQPEDTAVYYCYFRINFGILGGLRDYWGQGTQVTVSS
96.1

# next binder below
Enquiry: # input binder: 5-hIgG1Fc (Fc fusion, not shown: a dimerising Fc or GST) QVQLVESGGGLVQTGGSLRLSCAASDSTFSSYIMGWFRQAPGKEREFVAGITWSGGIKDYADSVKGRFTIARDNAKNTVYLQMNSLKPEDAAIYYCAANAIQLTRRSGDYAYWGQGTQVTVSS ; wanted: its binding percentage
Return: 96

Data credit: patent EP4682169A1
